The reported measurements were obtained from PubChem BioAssay (NCI).

# Tested on: SW-620 colon
# Test method notes: NCI-60 one-dose screen, 48 h
# Measurement context: 10 µM
Compounds without any hit were thinned out: in the full panel of roughly 83,000, 20% have a hit. The source made the active and inactive calls. The calls were made as follows: active = growth percent below 10; inactive = the rest.
Select the correct class. Options are 1 (yes) (active), 0 (no) (inactive) and nothing else.

Before answering, review these 3 worked examples.
CN1CCN(c2ccc(Nc3nc(N4CCN(S(=O)(=O)c5ccc(F)cc5)CC4)c4sccc4n3)cc2)CC1    1 (yes)
O=C(CNc1nc(-c2ccccc2)cs1)Nc1ccccc1    1 (yes)
C#CCNC(=O)[C@]12CCC(C)(C)C[C@H]1C1=CC[C@@H]3[C@@](C)(CCC#N)[C@H](C(=C)C)CC[C@@]3(C)[C@]1(C)CC2    0 (no)

### Prompt Dear colleague, could you share the recorded outcome for O=C1CCC(N2Cc3c(NCc4ccc(-c5ccccc5)cc4)cccc3C2=O)C(=O)N1 (stereo not drawn) when you have a moment?
### Response 0 (no)

### Prompt Same thing, different compound: Brc1ccc(/C=N/Nc2ncnc3sc4c(c23)CCN(Cc2ccccc2)C4)cc1
### Response 0 (no)

### Prompt Same thing, different compound: CC(=C(c1ccc(OCCN2CCCCC2)cc1)c1ccc(OCCN2CCCCC2)cc1)c1ccccc1
### Response 0 (no)

### Prompt Same thing, different compound: CN(C)CCNC(=O)OCCCCOc1cc(O)c2c(=O)cc(-c3ccccc3)oc2c1
### Response 1 (yes)

### Prompt Same thing, different compound: CCCCSc1nc(Nc2ccc(/C(C)=N/NC(N)=S)cc2)c(C#N)c(-c2ccc(OC)cc2)n1
### Response 0 (no)

---

# System: U251 CNS
# Test method notes: NCI-60 one-dose screen, 48 h
# Measurement context: 10 µM
Compounds without any hit were thinned out: in the full panel of roughly 83,000, 20% have a hit. The source made the active and inactive calls. How the source made its calls: active means growth percent below 10; inactive means the rest.
Select the correct class. Options are class 1 = active, class 0 = inactive and nothing else.

Before answering, review these 3 worked examples.
CN1CCc2c(sc3ncnc(N/N=C/c4cn(-c5ccccc5)nc4-c4ccc(Cl)cc4)c23)C1    class 0
Cc1ccc(-c2nc(Nc3ccccc3C(=O)O)c3ccccc3n2)cc1    class 0
COc1cc(/C=C/C(=O)c2ccc(S(=O)(=O)NCCNc3nc(Nc4ccc(F)cc4)nc(N(C)C)n3)cc2)cc(OC)c1OC    class 1

### Prompt Dear colleague, could you share the recorded outcome for Cc1ccc(/C=C(\C#N)n2nnc3c(F)cccc32)cc1 when you have a moment?
### Response class 1

### Prompt Same thing, different molecule: O=C1Nc2ccc(Cl)cc2/C1=C/c1ccc(OCc2ccc(Br)cc2F)cc1
### Response class 1

---

# Tested on: NCI-H522 lung
# Test method notes: NCI-60 one-dose screen, 48 h
# Measurement context: 10 µM
The panel holds about 83,000 compounds, 20% with a hit somewhere; the sample as a whole holds those more often. The source made the active and inactive calls. Rule for the calls: active = growth percent below 10; inactive = the rest.
Select the correct class. Options are active, inactive and nothing else.

Before answering, review these 6 worked examples.
COc1cc2c(cc1OC)/C(=C\c1sc(Nc3ccc(O)cc3)nc1O)C(C(=O)O)=N2    active
CCN(CC)CCOc1ccc(C(=C(C)c2ccccc2)c2ccc(OCCN(CC)CC)cc2)cc1    active
O=C1Nc2ccc(Cl)cc2/C1=C/c1cccc(OCc2ccccc2)c1    inactive
CC1(c2ccccc2)NC(=O)N(CC(=O)Nc2ccc(C(=O)/C=C/C=C/c3ccccc3)cc2)C1=O (stereo unspecified)    inactive
Cc1ccc(/C(CSc2nnc(-c3c[nH]c4ccccc34)n2-c2ccccc2)=N/O)cc1    inactive
CC1(C)CC[C@]2(C(=O)Nc3ccccc3)CC[C@]3(C)C(=CC[C@@H]4[C@@]5(C)CC[C@H](N)C(C)(C)[C@@H]5CC[C@]43C)[C@H]2C1    inactive

### Prompt Dear colleague, could you share the recorded outcome for Nc1nc(-c2ccccc2)cs1 when you have a moment?
### Response active

### Prompt Same thing, different molecule: OCCCNc1oc(-c2ccccc2)nc1[P+](c1ccccc1)(c1ccccc1)c1ccccc1
### Response active

### Prompt Same thing, different molecule: O=C(Nc1cccc([N+](=O)[O-])c1)Nc1cccc([N+](=O)[O-])c1
### Response inactive

### Prompt Same thing, different molecule: CC(C)(C)c1ccc(NCc2cn(-c3ccc(C(=O)O)cc3)nc2-c2ccc(C#N)cc2)cc1
### Response inactive

### Prompt Same thing, different molecule: COc1ccc(OC)c(-c2cc(-c3c[nH]c4ccccc34)nc(N)c2C#N)c1
### Response active

### Prompt Same thing, different molecule: Cc1cc(=O)oc2cc(OCCCCOc3ccc(/C=C/C(=O)Nc4cccc(Cl)c4)cc3)ccc12
### Response inactive

### Prompt Same thing, different molecule: N#Cc1ccc(-c2nn(-c3ccc(C(=O)O)cc3)cc2CNc2ccc(Oc3ccccc3)cc2)cc1
### Response inactive

### Prompt Same thing, different molecule: CN1CCN(c2ccc(Nc3nc(NCCCNC(=O)c4ccc(Cl)cc4)c4sccc4n3)cc2)CC1
### Response inactive

### Prompt Same thing, different molecule: O=C1CCC(N2Cc3c(NCc4ccc(-c5ccccc5)cc4)cccc3C2=O)C(=O)N1 (stereo unspecified)
### Response inactive

### Prompt Same thing, different molecule: COc1cc(C2CC(c3ccccc3)=Nc3c(N)nc(N)nc3N2)ccc1Oc1nc(Nc2ccc(F)cc2)nc(N(C)C)n1 (stereo unspecified)
### Response inactive
